- tested.target: T1, Bfl-1, Q16548
- T1 chain: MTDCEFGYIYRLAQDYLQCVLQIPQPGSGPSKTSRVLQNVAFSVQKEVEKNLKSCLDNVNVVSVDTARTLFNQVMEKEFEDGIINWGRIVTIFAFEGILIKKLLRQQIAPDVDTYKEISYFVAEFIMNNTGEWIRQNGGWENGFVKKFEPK
- procedure.details: peptide SPOT array, c-Myc-tagged receptor at 1 uM or 100 nM, anti-c-Myc-Cy3
experimental.endpoint: SPOT signal as a fraction of Bim BH3's signal on the same receptor and array

(I) VIKQRRLPDQLSKLADRIQLSGRYYL [RAPGEF2]
(II) TETKATFGVHDKIVGDWTERFRDLLL [NOX4]
(III) TAAAAYRGAHLRGRLRTVYNTFRAAA [XXXX]
(IV) MEGSDALALRLACIGDEMDVSLRAPR [BIK]
Data request: Task for the reader: place the binders above in descending order according to recorded SPOT signal as a fraction of Bim BH3's signal on the same receptor and array. Your answer should be the labels, listed in the requested order.
Data returned: III, I, IV, II
(III: 1.55, I: 0.91, IV: 0.43, II: 0.07)

(P) QASREAGAAALRNVLQRLFENYQTQS [CCDC68]
(Q) LGDGPKLVRELFRVAEEHAPSIVFID [PSMC1]
Data request: Field: lower recorded SPOT signal as a fraction of Bim BH3's signal on the same receptor and array (choose P or Q ) Write down the label of the entry you select.
Data returned: Q
(Q: 0.03, P: 0.18)

(1) PDKRLTLSQIYQYVADNFPFYNKSKA [FOXI1]
(2) ASEASLFEEALEKYGKDFNDIRQDFL [MTA3]
(3) KQMKEDGACLDRAVADQVYGDQDMHE [OTUD5]
Data request: Please list these in order of increasing SPOT signal as a fraction of Bim BH3's signal on the same receptor and array. Thank you! Your answer should be the labels, listed in the requested order.
Data returned: 2, 3, 1
